Values were extracted from the supplement of paper PMC10065799.

- Target: Fes (UniProt P07332)
- Sequence (P07332 whole entry, looked up): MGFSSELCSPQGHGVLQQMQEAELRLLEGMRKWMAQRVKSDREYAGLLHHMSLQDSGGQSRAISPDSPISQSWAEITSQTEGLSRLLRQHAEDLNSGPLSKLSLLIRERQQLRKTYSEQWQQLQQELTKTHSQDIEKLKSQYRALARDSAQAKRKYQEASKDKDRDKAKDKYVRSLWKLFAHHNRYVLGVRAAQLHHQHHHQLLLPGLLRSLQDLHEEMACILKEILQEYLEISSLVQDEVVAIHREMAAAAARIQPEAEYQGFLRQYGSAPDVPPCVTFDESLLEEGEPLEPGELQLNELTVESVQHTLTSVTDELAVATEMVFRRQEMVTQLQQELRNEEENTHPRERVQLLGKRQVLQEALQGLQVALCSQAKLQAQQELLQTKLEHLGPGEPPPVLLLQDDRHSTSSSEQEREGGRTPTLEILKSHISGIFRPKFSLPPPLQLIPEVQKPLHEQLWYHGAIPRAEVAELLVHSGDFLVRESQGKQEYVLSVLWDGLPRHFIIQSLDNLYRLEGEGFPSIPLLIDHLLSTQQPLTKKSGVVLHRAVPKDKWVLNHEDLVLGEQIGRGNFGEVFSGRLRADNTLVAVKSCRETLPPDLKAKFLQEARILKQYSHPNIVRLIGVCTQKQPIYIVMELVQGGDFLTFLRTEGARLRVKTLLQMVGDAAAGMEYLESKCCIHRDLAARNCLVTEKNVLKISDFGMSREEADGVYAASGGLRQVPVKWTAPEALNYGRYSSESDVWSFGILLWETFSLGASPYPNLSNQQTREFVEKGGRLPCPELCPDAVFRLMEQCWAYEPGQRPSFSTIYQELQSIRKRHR
- Protocol description: phosphorylation enrichment, bacterial display (enrichment ratio); higher = better substrate or ligand; peptides without Tyr show the background;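 note: 11-residue human phosphosite peptides and single-mutation variants displayed on the E. coli surface, counted by deep sequencing, each peptide's frequency after selection divided by its frequency in the unselected input library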;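 note: frequency after pTyr selection over input frequency; kinase dosed for 20-30% of maximal phosphorylation in three min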

Biopolymer sequence | Target | phosphorylation enrichment
CEAMEYQESKQ [BTK_Y511_L512Q] | Fes (UniProt P07332) | 1.48
SEASYYKSLNL [NGEF_Y289] | Fes (UniProt P07332) | 0.793
KTVQDYLEKFY [MMP8_Y36] | Fes (UniProt P07332) | 1.31
TLMNAYSSRSH [KIF11_Y231] | Fes (UniProt P07332) | 0.579
SSAKTYSRMRL [NBEAL2_Y1835_E1833K] | Fes (UniProt P07332) | 0.552
TNQVIYLNPPI [DYNC1H1_Y970] | Fes (UniProt P07332) | 0.77
CENNRYGMGTS [PDHA1_Y227] | Fes (UniProt P07332) | 1.36
